Target: Recombinant human liver GK1 (GST-GK) (Homo sapiens, UniProt P35557)
Construct: made in house; host or cells: E. coli
Sequence (P35557 1-466 isoform P35557-2): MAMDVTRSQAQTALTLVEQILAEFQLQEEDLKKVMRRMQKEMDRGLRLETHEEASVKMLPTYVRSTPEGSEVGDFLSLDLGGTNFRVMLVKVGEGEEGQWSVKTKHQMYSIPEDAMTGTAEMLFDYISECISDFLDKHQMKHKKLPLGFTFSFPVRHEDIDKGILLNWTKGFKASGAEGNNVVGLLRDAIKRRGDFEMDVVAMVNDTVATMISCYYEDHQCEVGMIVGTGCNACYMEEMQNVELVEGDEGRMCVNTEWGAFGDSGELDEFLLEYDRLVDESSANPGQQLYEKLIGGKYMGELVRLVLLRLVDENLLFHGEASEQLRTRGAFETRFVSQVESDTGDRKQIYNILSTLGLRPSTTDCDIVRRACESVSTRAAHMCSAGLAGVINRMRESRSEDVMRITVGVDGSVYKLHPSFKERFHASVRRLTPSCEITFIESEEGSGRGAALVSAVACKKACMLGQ
Assay: In vitro glucokinase activity assay (G6PDH-coupled, NADH, OD340)
Format: biochemical
Settings: concentration of activator that produced a 50% increase in the activity of GK; 5 mM D-glucose, 30° C.
# reported SC1.5; entries follow
endpoint: SC1.5 (µM)

molecule="CC(C)(O)c1ccc(C(CC2CCCC2)c2cc3cc(F)cnc3[nH]2)cc1 (stereo not shown)" endpoint=SC1.5 endpoint_result=0.78
molecule="CC(C)(O)c1ccc([C@@H](CC2CCCC2)c2cc3cccnc3[nH]2)cc1 (single isomer, unassigned)" endpoint=SC1.5 endpoint_result=0.647
molecule="CC(=O)c1cccc(C(CC(C)C)c2cc3cccnc3[nH]2)c1 (stereo not shown)" endpoint=SC1.5 endpoint_result=9.6
molecule=CNC(=O)c1cnc2[nH]c([C@H](CC3CCCC3)c3ccc(S(C)(=O)=O)cc3)cc2c1 endpoint=SC1.5 endpoint_result=1.0

----------
Molecular target: Recombinant human liver GK1 (GST-GK) (Homo sapiens, UniProt P35557)
Construct: made in house; host or cells: E. coli
Sequence (P35557 1-466 isoform P35557-2): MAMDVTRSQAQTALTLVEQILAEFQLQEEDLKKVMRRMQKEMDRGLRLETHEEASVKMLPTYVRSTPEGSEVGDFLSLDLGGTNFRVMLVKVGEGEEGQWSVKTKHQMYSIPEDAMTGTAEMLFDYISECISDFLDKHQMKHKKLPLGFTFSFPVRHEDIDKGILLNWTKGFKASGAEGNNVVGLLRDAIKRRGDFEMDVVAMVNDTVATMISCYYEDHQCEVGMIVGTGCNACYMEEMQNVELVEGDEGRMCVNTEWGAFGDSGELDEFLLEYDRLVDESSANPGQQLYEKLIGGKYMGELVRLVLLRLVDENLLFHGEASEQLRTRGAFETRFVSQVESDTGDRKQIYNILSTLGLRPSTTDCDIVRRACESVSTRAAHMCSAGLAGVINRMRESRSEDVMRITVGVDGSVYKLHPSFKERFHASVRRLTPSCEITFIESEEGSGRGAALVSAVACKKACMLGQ
Experiment: In vitro glucokinase activity assay (G6PDH-coupled, NADH, OD340)
Format: biochemical
Settings: concentration of activator that produced a 50% increase in the activity of GK; 5 mM D-glucose, 30° C.
# reported SC1.5; entries follow
endpoint: SC1.5 (µM)

compound="CC(C)CC(c1ccc(S(C)(=O)=O)cc1)c1cc2cc(F)cnc2[nH]1 (stereo not shown) [Example 99]" tgt="Recombinant human liver GK1 (GST-GK) (Homo sapiens, UniProt P35557)" endpoint=SC1.5 unit_tag=µM endpoint_result=0.394
compound="CN(C)CC(=O)Nc1cnc2[nH]c(C(CC3CCCC3)c3ccc(S(C)(=O)=O)cc3)cc2c1 (stereo not shown) [Example 107]" tgt="Recombinant human liver GK1 (GST-GK) (Homo sapiens, UniProt P35557)" endpoint=SC1.5 unit_tag=µM endpoint_result=9.4
compound="CS(=O)(=O)c1ccc(C(CC2CCOCC2)c2cc3cc(Cl)cnc3[nH]2)cc1 (stereo not shown) [Example 114]" tgt="Recombinant human liver GK1 (GST-GK) (Homo sapiens, UniProt P35557)" endpoint=SC1.5 unit_tag=µM endpoint_result=2.2
compound="CN(C)C(=O)Cc1cnc2[nH]c(C(CC3CCCC3)c3ccc(S(C)(=O)=O)cc3)cc2c1 (stereo not shown) [Example 39]" tgt="Recombinant human liver GK1 (GST-GK) (Homo sapiens, UniProt P35557)" endpoint=SC1.5 unit_tag=µM endpoint_result=9.1

----------
Molecular target: Recombinant human liver GK1 (GST-GK) (Homo sapiens)
Construct: made in house; host or cells: E. coli
Assay: In vitro glucokinase activity assay (G6PDH-coupled, NADH, OD340)
Format: biochemical
Conditions: concentration of activator that produced a 50% increase in the activity of GK; 5 mM D-glucose, 30° C.
# reported SC1.5; entries follow
endpoint: SC1.5 (µM)

compound="CN(C)CCOc1cnc2[nH]c(C(CC3CCCC3)c3ccc(S(C)(=O)=O)cc3)cc2c1 (stereo not shown)" endpoint_result=3.1
compound="CS(=O)(=O)c1ccc(C(O)(CC2CCC2)c2cc3cccnc3[nH]2)cc1C(F)(F)F (stereo not shown)" endpoint_result=14.9
compound="c1cnc2[nH]c(C(CC3CCCC3)c3ccc4c(c3)OCCO4)cc2c1 (stereo not shown)" endpoint_result=6.0
compound="COc1cnc2[nH]c(C(CC3CCCO3)c3ccc(S(C)(=O)=O)cc3)cc2c1 (single isomer, unassigned) [Example 23]" endpoint_result=21.9
compound="CC(C)(O)c1ccc([C@@H](CC2CCCC2)c2cc3cc(C(=O)O)cnc3[nH]2)cc1F (single isomer, unassigned)" endpoint_result=9.5
compound="CS(=O)(=O)c1ccc(C(O)(CC2CCCC2)c2cc3cccnc3[nH]2)cc1 (single isomer, unassigned)" endpoint_result=0.857
compound=CC(C)(C)/C=C(\c1ccc(S(C)(=O)=O)cc1)c1cc2cccnc2[nH]1 endpoint_result=0.653
compound="CC(C)CC(c1cccc(-n2cccn2)c1)c1cc2cccnc2[nH]1 (stereo not shown)" endpoint_result=15.2
compound="CC(C)(C)CC(c1ccc(S(C)(=O)=O)cc1)c1cc2cccnc2[nH]1 (stereo not shown)" endpoint_result=20.6
compound="CC(C)(O)c1ccc([C@@H](CC2CCCC2)c2cc3cc(F)cnc3[nH]2)cc1F (single isomer, unassigned)" endpoint_result=0.081
compound="CN(C)CCc1cnc2[nH]c(C(CC3CCCC3)c3ccc(S(C)(=O)=O)cc3)cc2c1 (stereo not shown)" endpoint_result=9.0
compound="CC(C)c1ccc(C(CC2CCCC2)c2cc3cc(F)cnc3[nH]2)cc1 (stereo not shown)" endpoint_result=0.458
compound="CC(C)Oc1cnc2[nH]c([C@H](CC3CCCC3)c3ccc(S(C)(=O)=O)cc3)cc2c1 (single isomer, unassigned)" endpoint_result=0.414
compound="CS(=O)(=O)c1ccc(C(CC2CCCC2)c2cc3cc(CCO)cnc3[nH]2)cc1 (stereo not shown)" endpoint_result=3.4
compound="COc1cnc2[nH]c(C(CC3CCCC3)c3ccc(S(C)(=O)=O)cc3)cc2c1 (stereo not shown)" endpoint_result=0.18
compound="CC(C)C(C)(O)c1ccc(C(CC2CCCC2)c2cc3cccnc3[nH]2)cc1 (stereo not shown)" endpoint_result=23.6
compound="CS(=O)(=O)c1ccc(C(O)(CC2CCC2)c2cc3cccnc3[nH]2)cc1 (stereo not shown)" endpoint_result=7.4
compound="CN(C)CC(=O)OCc1cnc2[nH]c(C(CC3CCCC3)c3ccc(S(C)(=O)=O)cc3)cc2c1 (stereo not shown)" endpoint_result=4.4
compound="CCOc1ccc(C(CC2CCCC2)c2cc3cccnc3[nH]2)cn1 (stereo not shown)" endpoint_result=2.4
compound="CC(C)(O)c1ccc([C@@H](CC2CCCC2)c2cc3cccnc3[nH]2)cc1F (single isomer, unassigned)" endpoint_result=0.144
compound="Clc1ccc(C(CC2CCCC2)c2cc3cccnc3[nH]2)cc1Cl (stereo not shown)" endpoint_result=1.1
compound="CS(=O)(=O)c1ccc(C(CC2CCCC2)c2cc3cccnc3[nH]2)cn1 (stereo not shown)" endpoint_result=2.1
compound="CCC(O)(CC)c1ccc([C@@H](CC2CCCC2)c2cc3cccnc3[nH]2)cc1 (single isomer, unassigned)" endpoint_result=5.9
compound="CS(=O)(=O)c1ccc(C(CC2CCOCC2)c2cc3cc(F)cnc3[nH]2)cc1 (stereo not shown)" endpoint_result=0.47
compound="COCCOc1cnc2[nH]c([C@H](CC3CCCC3)c3ccc(S(C)(=O)=O)cc3)cc2c1 (single isomer, unassigned)" endpoint_result=0.21
compound="CN(C)C(=O)COc1cnc2[nH]c(C(CC3CCCC3)c3ccc(S(C)(=O)=O)cc3)cc2c1 (stereo not shown)" endpoint_result=2.0
compound="CS(=O)(=O)c1ccc(C(CC2CCC2)c2cc3cc(F)cnc3[nH]2)cc1 (stereo not shown)" endpoint_result=0.415
compound="COc1cnc2[nH]c([C@H](CC3CCCCC3)c3ccc(S(C)(=O)=O)cc3)cc2c1 (single isomer, unassigned)" endpoint_result=0.218
compound="CS(=O)(=O)c1ccc(C(CC2CCC(=O)C2)c2cc3cccnc3[nH]2)cc1 (single isomer, unassigned) [Example 79]" endpoint_result=0.201
compound="CNC(=O)c1cnc2[nH]c(C(CC3CCCC3)c3ccc(S(C)(=O)=O)cc3)cc2c1 (stereo not shown)" endpoint_result=1.9
compound=CS(=O)(=O)c1ccc(/C(=C\C2CCC2)c2cc3cc(F)cnc3[nH]2)cc1 endpoint_result=0.028

Values compiled from patent US8222416B2.
